# METHOD: pKa by titration against aqueous NaOH (half neutralization point), buffer range
# Assay type: physicochemical
# RUN_PARAMETERS: range 1 acid:10 salt to 10 acid:1 salt
ATTRIBUTE_MEASURED: Buffer Range

[[record]]
compound = "O=C(O)c1ccccc1-n1cnc(-c2ccccc2)c1 [Example 1, 1-(2-carboxyphenyl)-4-phenylimidazole]"
assay_result = "3.9 - 5.9 pH Units"

[[record]]
compound = "COc1ccc(-c2ncn(-c3ccccc3C(=O)O)n2)cc1 [Example 8]"
assay_result = "3.7 - 5.7 pH Units"

[[record]]
compound = "O=C(O)c1ccccc1-n1cnc(-c2ccc(Cl)c(Cl)c2)n1 [Example 7]"
assay_result = "5.2 - 7.2 pH Units"


Request: Reported Buffer Range for COc1ccc(-c2cn(-c3ccccc3C(=O)O)cn2)cc1 [Example 3] : what is it?
Response: 4.1 - 6.1 pH Units

Request: Look at this compound and give its reported Buffer Range. O=C(O)c1ccccc1-n1cnc(-c2ccccc2)n1 [Example 5]
Response: 4.9 - 6.9 pH Units

Request: // query Buffer Range value for entry O=C(O)c1ccccc1-n1cnc(-c2ccc(Cl)cc2)n1 [Example 6]
Response: 4.5 - 6.5 pH Units

Request: Look up Buffer Range for this compound: Cc1ccc(-c2ncn(-c3ccccc3C(=O)O)n2)cc1 [Example 9]
Response: 3.8 - 5.8 pH Units

Request: What measured Buffer Range goes with Cc1ccc(-c2cn(-c3ccccc3C(=O)O)cn2)cc1 [Example 4] ?
Response: 4.6 - 6.6 pH Units
